Would you mind telling me the reported PBM binding z-score of each entry?
- Test system: LXRa:RXRa (NR concentration 270 nM, RXRa partner concentration 90 nM)
- experiment-summary: PBM binding z-score (relative to random genomic background probes); higher = stronger binding; sequences stand for … in GC…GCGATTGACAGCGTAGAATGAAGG
Give bare numbers.

In the examples that follow, each entry is paired with its recorded PBM binding z-score.
construct_sequence=TCTTGTAGATCAATATAGGTTAAGAAAGTGCGCT value_measured=2.72
construct_sequence=ATCTCTAGGTAACAAGTTCCGTGAAAGAGAGGAC value_measured=-0.0278
construct_sequence=TCGAGTAGGTTAGGCGCATTCAGAATGGCGTCGA value_measured=-0.29
construct_sequence=CGTCCAAGGTCAGAGAGGTCAGTGATTGCCGAGT value_measured=5.02
construct_sequence=ACTTACGGGTCAAAGAGGTTATAGCACGCGTATA value_measured=5.48

I have this sequence here, TCTTGTAGATCAATTGAGGTTAAGAAAGTGCGCT , and I need its recorded PBM binding z-score. 2.94
